biological target: UniProt P03956; experiment: MMP-1 inhibition (thiopeptide or fluorescent peptide substrate assay); format: biochemical; settings: read-out: MMP-1 IC50
READOUT_NAME: IC50 (nM)
Give the number; nM is assumed, so skip it.

Before answering, review these 3 worked examples.
{"columns": ["STRUCTURE_NOTATION", "READOUT_NAME", "VAL"],
 "data": [
  ["CCN(CC)Cc1ccc(CN(c2c(C)cccc2C(=O)NO)S(=O)(=O)c2ccc(OC)cc2)cc1", "IC50", 123],
  ["COc1ccc(S(=O)(=O)N(Cc2ccccc2)c2c(OC(C)C)cccc2C(=O)NO)cc1", "IC50", 152],
  ["COc1ccc(S(=O)(=O)N(Cc2cccnc2)c2c(C)cc(-c3cc(-c4ccc(C)o4)no3)cc2C(=O)NO)cc1", "IC50", 211]
]}

// moving on: another record for IC50
Can you look up the measured IC50 of `COc1ccc(S(=O)(=O)N(Cc2cccnc2)c2c(C)cc(C=CC(=O)N3CCOCC3)cc2C(=O)NO)cc1` for me?
86

====

Target: MMP-1 (Homo sapiens)
Sequence (P03956 100-469): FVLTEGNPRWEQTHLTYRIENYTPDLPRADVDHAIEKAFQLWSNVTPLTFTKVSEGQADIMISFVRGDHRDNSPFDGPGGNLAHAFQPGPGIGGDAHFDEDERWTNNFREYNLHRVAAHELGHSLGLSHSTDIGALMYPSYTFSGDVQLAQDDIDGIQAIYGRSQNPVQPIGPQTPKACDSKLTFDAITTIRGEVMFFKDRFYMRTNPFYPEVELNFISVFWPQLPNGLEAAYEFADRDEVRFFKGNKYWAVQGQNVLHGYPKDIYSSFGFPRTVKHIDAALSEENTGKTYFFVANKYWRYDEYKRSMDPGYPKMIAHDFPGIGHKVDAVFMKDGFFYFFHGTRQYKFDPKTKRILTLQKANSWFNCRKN
Experiment: MMP-1 inhibition (thiopeptide or fluorescent peptide substrate assay)
Type: biochemical
Settings: read-out: MMP-1 IC50
Reported values of IC50 for individual entries
Unit nM implied. Number only.

// below: answered compounds
{"columns": ["STRUCTURE_NOTATION", "IC50, nM"],
 "data": [
  ["COCc1cccc(C(=O)NO)c1N(Cc1cccnc1)S(=O)(=O)c1ccc(OC)cc1", 449],
  ["C=CCN(CC=C)C(=O)C=Cc1cc(C)c(N(Cc2cccnc2)S(=O)(=O)c2ccc(OC)cc2)c(C(=O)NO)c1", 32],
  ["CCCCCCCCN(C)C(=O)C=Cc1cc(C)c(N(Cc2cccnc2)S(=O)(=O)c2ccc(OC)cc2)c(C(=O)NO)c1", 957]
]}

Please report the recorded IC50 for `Cc1cccc(C(=O)NO)c1N(Cc1ccc(Cl)cc1)S(=O)(=O)c1ccc(-c2ccccn2)s1` .
1690

Also check `COc1ccc(S(=O)(=O)N(Cc2cccnc2)c2c(C)cc(-c3ccccc3C=NO)cc2C(=O)NO)cc1`
528

====

Each item that follows carries a reported IC50.
biological target: MMP-1 (Homo sapiens); assay: MMP-1 inhibition (thiopeptide or fluorescent peptide substrate assay); assay type: biochemical; conditions: read-out: MMP-1 IC50
Where a name gives a salt, the structure may show the parent alone.
Respond with the bare value in µM.

{"columns": ["COMPOUND", "IC50 / µM"],
 "data": [
  ["COc1ccc(S(=O)(=O)N(Cc2ccccc2)c2c(OCCCO)cccc2C(=O)NO)cc1 [Example 174]", 0.323],
  ["CCN(C(=O)C=Cc1cc(C)c(N(Cc2cccnc2)S(=O)(=O)c2ccc(OC)cc2)c(C(=O)NO)c1)c1ccccc1 [Example 230]", 0.02],
  ["COc1ccc(S(=O)(=O)N(Cc2cccnc2)c2c(C)cc(-c3ccc4c(c3)OCO4)cc2C(=O)NO)cc1 [Example 405, hydrochloride salt]", 0.176],
  ["COc1ccc(S(=O)(=O)N(C)c2c(Cn3ccnc3)cccc2C(=O)NO)cc1 [Example 311]", 0.781]
]}

For the compound shown here, COc1ccc(S(=O)(=O)N(Cc2ccccc2)c2c(OCc3ccccc3)cccc2C(=O)NO)cc1 [Example 34] , give the reported IC50.
0.281
